Biological target: T1, erythropoietin receptor, human recombinant (NSO cells) (human, UniProt P19235 25-250, limits assumed)
T1 construct: also called EPOR; EPO receptor
T1 sequence (looked up): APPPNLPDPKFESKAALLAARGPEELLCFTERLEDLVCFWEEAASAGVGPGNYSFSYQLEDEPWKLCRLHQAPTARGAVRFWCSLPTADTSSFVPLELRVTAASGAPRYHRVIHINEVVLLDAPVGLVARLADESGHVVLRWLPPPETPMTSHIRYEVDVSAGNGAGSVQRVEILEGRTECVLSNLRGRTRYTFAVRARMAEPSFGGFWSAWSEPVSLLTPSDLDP
Assay: radioligand binding, displacement of [125I]EPO
Where no end group is shown, it is not given here.
measured metric: Ki
Enter the number, and then the unit.

Exercise: Provide one value: measured Ki of NYLCRMGPITWVCKP (not fully specified; cysteine pairing not given here, Structure only as drawing CHEM-US-00005; also called compound 003; Control 2: AC-0005-003) [AC-0005-003]
Solution: 78 nM
